Test system: muMax20 (Max(13-93) K31hArg/K57hArg, M65Nle)
Experiment Summary: PBM 8-mer E-score (E-score (rank enrichment, -0.5 to 0.5)); higher = stronger preferential binding
Whole data set: some 33,000 sequences, median “E-score (rank enrichment, -0.5 to 0.5)” near -0.0068, cut for the highest 2% near 0.24. Only a selection was taken, and the highest values are over-represented in it overall.
Hi, to clarify the labels: 1 covers PBM 8-mer E-score from -0.01 upward, 0 covers anything below -0.01.

{"columns": ["Sequence Chain", "Class"],
 "data": [
  ["ACCCCGAG", 0],
  ["GCCCCTAC", 1],
  ["GGCTCCCA", 0],
  ["TAACGGTA", 1],
  ["GGGCGTAA", 0],
  ["GAAAACCC", 1],
  ["ACACACGG", 1],
  ["AGGCGACA", 0],
  ["CAAAAACG", 1],
  ["CACTCGCG", 0]
]}

Request: Reported PBM 8-mer E-score reaches at least -0.01 for TCACTCAA ?
Result: 1

Request: Could you tell me if the measured PBM 8-mer E-score of AAACACGT reaches -0.01 or more?
Result: 1

Request: Determine whether measured PBM 8-mer E-score meets or exceeds -0.01 for AAAAAACA
Result: 1

====

# PBM 8-mer E-score values compiled below
System: muMax20 (Max(13-93) K31hArg/K57hArg, M65Nle)
Experiment Summary: PBM 8-mer E-score (E-score (rank enrichment, -0.5 to 0.5)); higher = stronger preferential binding
Whole data set: some 33,000 sequences, median “E-score (rank enrichment, -0.5 to 0.5)” near -0.0068, cut for the highest 2% near 0.24. This excerpt belongs to a sample that is enriched for the highest values.
When you answer, write just the number.

Some solved entries appear below for comparison.
{"columns": ["Sequence Chain", "PBM 8-mer E-score"],
 "data": [
  ["CCGGTCGC", -0.276],
  ["CATAATTC", -0.00772],
  ["CCCACGCG", 0.246],
  ["TATTAACA", 0.128],
  ["CATTAACA", 0.22]
]}

Next, consider the following sequence.
// field: PBM 8-mer E-score; key: AGCGTTTG ; value = -0.169

====

Test system: muMax20 (Max(13-93) K31hArg/K57hArg, M65Nle)
Experiment Summary: PBM 8-mer E-score (E-score (rank enrichment, -0.5 to 0.5)); higher = stronger preferential binding
The full ranking holds about 33,000 sequences; the median of “E-score (rank enrichment, -0.5 to 0.5)” is about -0.0068, and the highest 2% start at about 0.24. The full list was thinned out, with the highest values kept by preference.
Each record here notes measured PBM 8-mer E-score.
API note: the answer field is a bare number with no unit suffix.

Below: 5 sequences and their reported PBM 8-mer E-score.
{"columns": ["Sequence Chain", "PBM 8-mer E-score"],
 "data": [
  ["CTACAAAA", 0.0991],
  ["CTTTTTTC", 0.127],
  ["CCTCCGAA", -0.0791],
  ["AACTGAAA", 0.146],
  ["CCAGCTGC", -0.272]
]}

The recorded PBM 8-mer E-score for entry AGAAAAAA equals 0.231

====

Tested on: muMax20 (Max(13-93) K31hArg/K57hArg, M65Nle)
Experiment Summary: PBM 8-mer E-score (E-score (rank enrichment, -0.5 to 0.5)); higher = stronger preferential binding
In all, about 33,000 sequences were measured (“E-score (rank enrichment, -0.5 to 0.5)”: median about -0.0068, highest 2% from about 0.24 on). Shown is part of a subset that was picked to be rich in the highest values.
Measured PBM 8-mer E-score values are reported for all entries that follow.

// solved cases for PBM 8-mer E-score follow
{"columns": ["Sequence Chain", "PBM 8-mer E-score"],
 "data": [
  ["GCACGTCC", -0.0223],
  ["AGTATTAG", 0.0793],
  ["AGGCCGTC", -0.184],
  ["CCCGTGTC", -0.147],
  ["ACACATTC", -0.0504],
  ["AAAGTGTA", 0.12],
  ["CAGCGGCG", -0.0966],
  ["CATGGTAG", 0.0279],
  ["ACAGCGGA", -0.0346],
  ["CATAAATA", 0.318]
]}

GGTTACAC has a reported PBM 8-mer E-score of 0.151

Query ACAACAAA yields PBM 8-mer E-score of 0.163

// recorded PBM 8-mer E-score for CAGGGCAC : -0.0777

PBM 8-mer E-score recorded for this sequence, AGTATTAA , is 0.268

sequence ACTACAAG , PBM 8-mer E-score observed: 0.135

// ACCATATC : PBM 8-mer E-score value = 0.0503

The recorded PBM 8-mer E-score for entry GTCTATAA equals 0.181

The reported value for GGTATACA in terms of PBM 8-mer E-score is 0.109

The reported value for CATGGTCG in terms of PBM 8-mer E-score is 0.0286

Lab note: measured PBM 8-mer E-score of CATGGTAA was 0.297

Input GCACCCGA . Output PBM 8-mer E-score: -0.265

====

Let's look at some sequences and their measured PBM 8-mer E-score.
System: muMax20 (Max(13-93) K31hArg/K57hArg, M65Nle)
Experiment Summary: PBM 8-mer E-score (E-score (rank enrichment, -0.5 to 0.5)); higher = stronger preferential binding
Over roughly 33,000 sequences, “E-score (rank enrichment, -0.5 to 0.5)” has its median near -0.0068; the highest 2% begin near 0.24. The full list was thinned out, with the highest values kept by preference.
# answer = number (no unit)

PBM 8-mer E-score recorded for this sequence, TTAAAGAA , is 0.17

Record ATAAAGCA , field PBM 8-mer E-score: 0.243

Reported PBM 8-mer E-score for CCGTGCTA was -0.0534

// field: PBM 8-mer E-score; key: ACGTGCAA ; value = 0.251

====

Quick reference for PBM 8-mer E-score among some sequences
System: muMax20 (Max(13-93) K31hArg/K57hArg, M65Nle)
Experiment Summary: PBM 8-mer E-score (E-score (rank enrichment, -0.5 to 0.5)); higher = stronger preferential binding
The full ranking holds about 33,000 sequences; the median of “E-score (rank enrichment, -0.5 to 0.5)” is about -0.0068, and the highest 2% start at about 0.24. The list comes from a sample in which the highest values are over-represented; it also holds close analogues and randomly drawn sequences.
Response field accepts a number only; no unit should be typed.

Consider the worked cases shown below.
{"columns": ["Sequence Chain", "PBM 8-mer E-score"],
 "data": [
  ["CAGGCTCA", -0.0417],
  ["ACGTGAAT", 0.235]
]}

# ATGTATCG with muMax20 (Max(13-93) K31hArg/K57hArg, M65Nle): PBM 8-mer E-score is 0.213

====

Entries and their measured PBM 8-mer E-score follow.
Tested on: muMax20 (Max(13-93) K31hArg/K57hArg, M65Nle)
Experiment Summary: PBM 8-mer E-score (E-score (rank enrichment, -0.5 to 0.5)); higher = stronger preferential binding
In all, about 33,000 sequences were measured (“E-score (rank enrichment, -0.5 to 0.5)”: median about -0.0068, highest 2% from about 0.24 on). This excerpt belongs to a sample that is enriched for the highest values.

{"columns": ["Sequence Chain", "PBM 8-mer E-score"],
 "data": [
  ["AGCCAATC", -0.047]
]}

Form field PBM 8-mer E-score, entry GCAGGTCA : -0.191

TGAATCCA has a reported PBM 8-mer E-score of 0.0507

Quick note, PBM 8-mer E-score for GGTTTCAA landed at 0.0825

Kindly note the recorded PBM 8-mer E-score for ACTATGTG , which is 0.109

Measured PBM 8-mer E-score, CGCGGGTA : -0.0475

sequence ATAAATAG , PBM 8-mer E-score observed: 0.167

PBM 8-mer E-score measured on AGTACTAG = 0.029

Lab note: measured PBM 8-mer E-score of ATGCCCAG was -0.219

For reference, reported PBM 8-mer E-score for AGTTCACG stands at -0.107

Data point: CACCGGCA ; PBM 8-mer E-score = -0.12

Please fill in: PBM 8-mer E-score reported for ATTCTTTC = 0.176

Summary for this sequence, GCAGGTGA : PBM 8-mer E-score is -0.0216

Record ATCCTGAC , field PBM 8-mer E-score: -0.115

Measured PBM 8-mer E-score of GGAAATAA : 0.154

response.value for GACGTGCC (field: PBM 8-mer E-score) = -0.0314

Looking up AGTACTAC , I see its PBM 8-mer E-score listed as 0.28

Data point: ACTTCGGG ; PBM 8-mer E-score = 0.0794

Briefly, PBM 8-mer E-score measured for CACGTGCA : 0.451
